# subject of test: human GPR17 short isoform (Homo sapiens)
# Sequence (Q13304 29-367): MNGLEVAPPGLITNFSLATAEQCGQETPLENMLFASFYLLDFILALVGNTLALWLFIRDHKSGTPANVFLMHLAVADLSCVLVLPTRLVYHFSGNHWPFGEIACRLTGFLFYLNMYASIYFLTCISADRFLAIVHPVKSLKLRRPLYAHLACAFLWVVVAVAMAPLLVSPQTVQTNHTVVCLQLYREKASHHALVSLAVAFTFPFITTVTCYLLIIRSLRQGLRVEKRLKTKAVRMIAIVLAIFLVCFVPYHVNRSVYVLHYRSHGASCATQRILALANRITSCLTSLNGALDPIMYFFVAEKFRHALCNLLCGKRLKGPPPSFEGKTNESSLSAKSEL
# protocol description: GPR17 cAMP assay (hGPR17 cAMP, TR-FRET, antagonist mode)
# condition label: CHO-K1 cells stably expressing human GPR17 short isoform; EC80 of agonist MDL29,951; forskolin 15 μM; 30 min at room temperature
quantity name: IC50
Phrase the answer as number then unit, nothing more needed.

Form field IC50, entry COc1nc(NS(=O)(=O)c2cnc3nc(C4CC4)ccn23)c(F)cc1OC(F)F [Example 97] : 23 nM

Form field IC50, entry COc1nc(OC(F)F)c(F)cc1NS(=O)(=O)c1cnc2cc(C3CC3)ccn12 [Example 95] : 13 nM

Form field IC50, entry COc1nc(NS(=O)(=O)c2cnc3cc(Cl)ccn23)c(F)cc1OC(F)F [Example 40] : 64 nM

Form field IC50, entry COc1nc(C2CC2)c(F)cc1NS(=O)(=O)c1cnc2cc(Cl)ccn12 [Example 25] : 23 nM

Form field IC50, entry COc1nc(OCC(F)F)c(F)cc1NS(=O)(=O)c1cnc2c(C#N)cccn12 [Example 69] : 393 nM

Form field IC50, entry COc1nc(NS(=O)(=O)c2cnn3cc(Br)ccc23)c(F)cc1OCC(F)F [Example 81] : 49 nM

Form field IC50, entry COc1nc(NS(=O)(=O)c2cnc3cc(Cl)ccn23)ncc1OCCF [Example 74] : 897 nM

Form field IC50, entry CCc1ccn2c(S(=O)(=O)Nc3cc(F)c(OCC(F)F)nc3OC)cnc2c1 [Example 17] : 18 nM

Form field IC50, entry COc1ccn2c(S(=O)(=O)Nc3nc(OC)c(CC#N)cc3F)cnc2c1 [Example 35] : 46 nM

###

# subject of test: human GPR17 short isoform (Homo sapiens)
# protocol description: GPR17 cAMP assay (hGPR17 cAMP, TR-FRET, antagonist mode)
# condition label: CHO-K1 cells stably expressing human GPR17 short isoform; EC80 of agonist MDL29,951; forskolin 15 μM; 30 min at room temperature
Would you mind telling me the reported IC50 of each entry?
Enter your answer as a number in nM; do not include the unit.

Form field IC50, entry COc1nc(OCC(F)F)c(F)cc1NS(=O)(=O)c1cnn2c1COC(C)C2 (stereo not drawn) : 692

Form field IC50, entry COc1nc(OCC(F)F)c(F)cc1NS(=O)(=O)c1cnn2cc(Br)ccc12 : 10

Form field IC50, entry COc1nc(NS(=O)(=O)c2cnc3cc(Cl)ccn23)c(F)cc1OCC(F)F : 99

Form field IC50, entry COc1nc(OC(F)F)c(F)cc1NS(=O)(=O)c1cnc2cc(Br)ccn12 : 9

Form field IC50, entry N#CCc1cc(F)c(NS(=O)(=O)c2cnn3cc(Br)ccc23)cc1F : 115

Form field IC50, entry COc1nc(NS(=O)(=O)c2cnc3cc(Cl)ccn23)nc(OC)c1OCCF : 139

Form field IC50, entry COc1nc(CC#N)c(F)cc1NS(=O)(=O)c1cnn2cc(Br)ccc12 : 6

Form field IC50, entry COc1nc(CCC(F)F)c(F)cc1NS(=O)(=O)c1cnc2cc(Cl)ccn12 : 11

Form field IC50, entry N#CCc1cc(F)c(NS(=O)(=O)c2cnc3cc(Br)ccn23)cc1F : 45

Form field IC50, entry COc1nc(C2COC2)c(F)cc1NS(=O)(=O)c1cnc2cc(Cl)ccn12 : 407

Form field IC50, entry COc1nc(OCC(F)F)c(F)cc1NS(=O)(=O)c1cnc2n1CC[C@@H](C)C2 : 16

Form field IC50, entry COc1nc(OCC(F)F)c(F)cc1NS(=O)(=O)c1cnc2c(=O)n(C)ccn12 : 174

Form field IC50, entry COc1nc(NS(=O)(=O)c2cnc3cc(Br)ccn23)c(F)cc1CC#N : 21

Form field IC50, entry COc1nc(NS(=O)(=O)c2cnc3cc(Br)ccn23)c(F)cc1CC(F)F : 11

Form field IC50, entry COc1nc(NS(=O)(=O)c2cnc3cc(C)ccn23)nc(OC)c1C : 112

Form field IC50, entry COc1nc(OCC(F)F)c(F)cc1NS(=O)(=O)c1cnn2c(C#N)c(C)ccc12 : 130

Form field IC50, entry COc1nc(OCC(F)F)c(F)cc1NS(=O)(=O)c1cnc2nc(C)ccn12 : 85

Form field IC50, entry COc1nc(CC(F)F)c(F)cc1NS(=O)(=O)c1cnc2cc(Cl)ccn12 : 14

###

# subject of test: human GPR17 short isoform (Homo sapiens)
# protocol description: GPR17 cAMP assay (hGPR17 cAMP, TR-FRET, antagonist mode)
# condition label: CHO-K1 cells stably expressing human GPR17 short isoform; EC80 of agonist MDL29,951; forskolin 15 μM; 30 min at room temperature
quantity name: IC50 (nM)
Enter your answer as a number in nM; do not include the unit.

Form field IC50, entry COc1nc(OCC(F)F)c(F)cc1NS(=O)(=O)c1cnc2n1CC[C@H](C)C2 : 35

Form field IC50, entry COc1nc(OCC(F)F)c(F)cc1NS(=O)(=O)c1cnc2c(F)c(Cl)ccn12 : 9

Form field IC50, entry COc1ccn2c(S(=O)(=O)Nc3cc(F)c(OCC(F)F)nc3OC)cnc2c1C#N : 179

Form field IC50, entry COc1nc(OCC(F)F)c(F)cc1NS(=O)(=O)c1cnc2nc(C3COC3)ccn12 : 492

Form field IC50, entry COc1nc(OCC(F)F)c(F)cc1NS(=O)(=O)c1cnc2n1CCC2C (centres unmarked) : 974

Form field IC50, entry Cc1ccn2c(S(=O)(=O)Nc3cc(F)c(OC(F)F)nc3OC(F)F)cnc2c1C#N : 289

Form field IC50, entry COc1nc(NS(=O)(=O)c2cnc3cc(Br)ccn23)nc(OC)c1Br : 82

Form field IC50, entry COc1nc(OCC(F)F)c(F)cc1NS(=O)(=O)c1cnc2n1CCC(C)C2 (centres unmarked) : 23

Form field IC50, entry COc1nc(OCC(F)F)c(F)cc1NS(=O)(=O)c1cnc2n1CCC(OC)C2 (centres unmarked) : 217

Form field IC50, entry COc1nc(OCC(F)F)c(F)cc1NS(=O)(=O)c1cnc2c(C#N)c(OC(F)F)ccn12 : 270

Form field IC50, entry COc1nc(OCC(F)F)c(F)cc1NS(=O)(=O)c1cnn2c1CCC(C)C2 (centres unmarked) : 100

Form field IC50, entry COc1nc(OCC(F)F)c(F)cc1NS(=O)(=O)c1cnc2nc(C3CC3)ccn12 : 18

Form field IC50, entry COc1nc(OCC(F)F)c(F)cc1NS(=O)(=O)c1cnn2cc(C3COC3)ccc12 : 306

Form field IC50, entry COc1nc(OCC(F)F)c(F)cc1NS(=O)(=O)c1cnc2c(C)cccn12 : 413

Form field IC50, entry COc1nc(OCC(F)F)c(F)cc1NS(=O)(=O)c1cnc2c(OC)c(C)ccn12 : 8

Form field IC50, entry COc1cc(CC#N)c(F)cc1NS(=O)(=O)c1cnc2nc(C3CC3)ccn12 : 19

Form field IC50, entry COc1ccn2c(S(=O)(=O)Nc3cc(F)c(OCC(F)F)nc3OC)cnc2c1 : 18

Form field IC50, entry COc1nc(NS(=O)(=O)c2cnc3cc(C4CC4)ccn23)c(F)cc1CC#N : 38

Form field IC50, entry COc1nc(OC(F)F)c(F)cc1NS(=O)(=O)c1cnc2c(C#N)c(C)ccn12 : 75

Form field IC50, entry COc1cc(CC#N)c(F)cc1NS(=O)(=O)c1cnc2cc(C)ccn12 : 21

Form field IC50, entry COc1c(Cl)ccn2c(S(=O)(=O)Nc3cc(F)c(CC#N)cc3F)cnc12 : 181

Form field IC50, entry COc1ccn2c(S(=O)(=O)Nc3cc(F)c(CC#N)cc3F)cnc2n1 : 876

Form field IC50, entry COc1nc(OCC(F)F)c(F)cc1NS(=O)(=O)c1cnc2n1CCC(C)C2C (centres unmarked) : 35

Form field IC50, entry COc1nc(OCC(F)F)c(F)cc1NS(=O)(=O)c1cnc2cc(OC(F)F)ccn12 : 8

Form field IC50, entry COc1nc(OC(F)F)c(F)cc1NS(=O)(=O)c1cnc2c(OC)c(C)ccn12 : 19

Form field IC50, entry COc1nc(NS(=O)(=O)c2cnc3cc(Cl)ccn23)c(F)cc1C1CC1 : 76

Form field IC50, entry COc1nc(OCC(F)F)c(F)cc1NS(=O)(=O)c1cnc2n1CCCC2 : 217

Form field IC50, entry COc1ccn2c(S(=O)(=O)Nc3cc(F)c(CC#N)cc3F)cnc2c1 : 116

Form field IC50, entry COc1nc(OCC(F)F)c(F)cc1NS(=O)(=O)c1cnc2n1CCC(C)(C)C2 : 76

Form field IC50, entry N#CCc1cc(F)c(NS(=O)(=O)c2cnc3c(F)c(Cl)ccn23)cc1F : 329

Form field IC50, entry COc1nc(NS(=O)(=O)c2cnc3cc(Br)ccn23)ncc1OCCF : 211

Form field IC50, entry COc1nc(OCC(F)F)c(F)cc1NS(=O)(=O)c1cnc2n1CC(C)C2 (centres unmarked) : 449

Form field IC50, entry COc1nc(NS(=O)(=O)c2cnn3cc(Br)ccc23)c(F)cc1CC#N : 20

Form field IC50, entry COc1ccn2c(S(=O)(=O)Nc3cc(F)c(OC(F)F)nc3OC)cnc2c1 : 33

Form field IC50, entry Cc1ccn2c(S(=O)(=O)Nc3cc(F)c(CC#N)cc3F)cnc2c1C#N : 301
